study-system: human ACVR2A (human, UniProt P27037 20-135, limits assumed); also: test concentration or dose not given here
Sequence (P27037 20-135 limits assumed): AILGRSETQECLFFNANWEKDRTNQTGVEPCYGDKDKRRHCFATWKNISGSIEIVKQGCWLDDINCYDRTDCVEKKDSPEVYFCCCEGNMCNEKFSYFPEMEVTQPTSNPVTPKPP
assay-protocol: ELISA
Procedure: The binding of ACVR2A-specific monoclonal antibodies to human ACVR2A, mouse ACVR2A, biotinylated goat anti-human kappa light chain (positive control) and human Fc (negative control) were determined by ELISA.
measured-attribute: optical density (OD)
Kindly answer with a numeric value in OD, unit omitted.

# example entries with known answers
370_A09 (antibody, V domains shown, VH/VL only) VH: EVQLLESGGGLVQPGGSLRLSCAASGFTFSSYSMNWVRQAPGKGLEWVAGINYNGGYTGYADSVKGRFTISRDNSKNTLYLQMNSLRAEDTAVYYCARSATWHDTHLDYWGQGTLVTVSS VL: DIQMTQSPSSLSASVGDRVTITCRASQSILTYLNWYQQKPGKAPKLVIYAATSRASGVPSRFSGSGSGTDFTLTISSLQPEDFATYYCQQSYDTPLTFGGGTKVEIK
3.46
374_H09 (antibody, V domains shown, VH/VL only) VH: EVQLLESGGGLVQPGGSLRLSCAASGFTFSSYSMNWVRQAPGKGLEWVANINYNSGYKSYADSVKGRFTISRDNSKNTLYLQMNSLRAEDTAVYYCARSANWHDTALDYWGQGTLVTVSS VL: DIQMTQSPSSLSASVGDRVTITCRASQSILSYLNWYQQKPGKAPKLVIYAVTSLASGVPSRFSGSGSGTDFTLTISSLQPEDFATYYCQQSYDLPLTFGGGTKVEIK
3.25

# input for lookup
Request: optical density lookup needed for 373_B11 (antibody, V domains shown, VH/VL only) VH: EVQLLESGGGLVQPGGSLRLSCAASGFTFSSYSMNWVRQAPGKGLEWVANINYNSGYKGYADSVKGRFTISRDNSKNTLYLQMNSLRAEDTAVYYCARSATWHDTHLDYWGQGTLVTVSS VL: DIQMTQSPSSLSASVGDRVTITCRASQSILSYLNWYQQKPGKAPKLLIYAATSRASGVPSRFSGSGSGTDFTLTISSLQPEDFATYYCQQSYDNPLTFGGGTKVEIK , thanks.
Result: 3.72

Recorded values, source patent US20210380703A1.
